Source: the kinase profiling compilation of Christmann-Franck et al. (2016)

SYSTEM NAME: MAP4K5 (human)
PROTOCOL DESCRIPTION: radiometric filter-binding kinase assay, Kinase HotSpot
STATED CONDITIONS: compound 0.5 µM; ATP 10 µM
Measured residual activity accompanies every entry in the list below.
Express the result in % but write the number alone.

Solved cases (3 shown):
• C#Cc1cccc(Nc2ncnc3cc(OCCOC)c(OCCOC)cc23)c1 = 95.6
• O=C1Nc2cc(Br)ccc2/C1=C1/Nc2ccccc2/C1=N\O = 36.5
• Oc1ccc(-c2nc(-c3ccc(F)cc3)c(-c3ccncc3)[nH]2)cc1 = 96.6

Data request: State the recorded residual activity for this entry: "O=C1Cc2c([nH]c3ccc([N+](=O)[O-])cc23)-c2ccccc2N1"
Data returned: 15.9

Data request: Also O=C(NC(NC(=S)Nc1ccc(F)c([N+](=O)[O-])c1)C(Cl)(Cl)Cl)C(c1ccccc1)c1ccccc1 (stereo not given) ?
Data returned: 91

====

SYSTEM NAME: PRKCA (human)
PROTOCOL DESCRIPTION: radiometric filter-binding kinase assay, Kinase HotSpot
STATED CONDITIONS: compound 0.5 µM; ATP 10 µM
Measured residual activity accompanies every entry in the list below.
Express the result in % but write the number alone.

• CC(C)n1cnc2c(Nc3cccc(Cl)c3)nc(NCCO)nc21 = 78.6
• Nc1nc(Nc2ccc(S(N)(=O)=O)cc2)nn1C(=O)c1c(F)cccc1F = 55.7
• O=c1cc(-c2cccc3c2Sc2ccccc2S3)oc(N2CCOCC2)c1 = 80.3

Data request: State the recorded residual activity for this entry: "O=C1Nc2ccccc2/C1=C\c1c(Cl)[nH]c2ccccc12"
Data returned: 63.2

Data request: Also "O=C(Nc1ccc(Cl)cc1)c1ccccc1NCc1ccncc1" ?
Data returned: 96.7

Data request: Also O=C(NC(NC(=S)Nc1ccc(F)c([N+](=O)[O-])c1)C(Cl)(Cl)Cl)C(c1ccccc1)c1ccccc1 (centres undefined) ?
Data returned: 73.1

Data request: Also "Nc1n[nH]c2nnc(-c3c(-c4ccccc4)nn4ccccc34)cc12" ?
Data returned: 87.2

Data request: Also "CCCNC(=O)Nc1ccc(Oc2ncnc3cc(OC)c(OC)cc23)cc1Cl" ?
Data returned: 99.3

Data request: Also "Nc1nc(Nc2ccc(S(N)(=O)=O)cc2)nn1C(=S)Nc1c(F)cccc1F" ?
Data returned: 46.2

====

SYSTEM NAME: STK33 (human) (UniProt Q9BYT3)
Sequence (Q9BYT3 whole entry, looked up): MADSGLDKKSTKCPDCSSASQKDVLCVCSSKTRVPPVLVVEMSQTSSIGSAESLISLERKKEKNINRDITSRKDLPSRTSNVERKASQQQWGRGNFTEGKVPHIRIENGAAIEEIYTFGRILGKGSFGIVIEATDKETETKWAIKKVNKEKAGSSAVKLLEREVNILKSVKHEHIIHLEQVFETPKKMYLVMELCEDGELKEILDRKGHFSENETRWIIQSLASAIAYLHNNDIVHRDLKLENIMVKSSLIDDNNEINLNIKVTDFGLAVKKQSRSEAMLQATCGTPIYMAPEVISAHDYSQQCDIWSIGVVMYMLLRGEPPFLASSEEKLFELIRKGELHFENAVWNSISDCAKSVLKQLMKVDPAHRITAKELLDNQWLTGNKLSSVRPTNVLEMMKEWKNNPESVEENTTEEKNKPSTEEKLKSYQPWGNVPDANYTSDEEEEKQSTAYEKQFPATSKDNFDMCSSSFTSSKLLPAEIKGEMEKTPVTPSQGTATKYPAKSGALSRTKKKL
PROTOCOL DESCRIPTION: radiometric filter-binding kinase assay, Kinase HotSpot
STATED CONDITIONS: compound 0.5 µM; ATP 10 µM
Measured residual activity accompanies every entry in the list below.
Numeric answer plus unit only.

Solved cases (3 shown):
* O=C1Cc2c([nH]c3ccc([N+](=O)[O-])cc23)-c2ccccc2N1 | 79.9%
* CCCNC(=O)Nc1ccc(Oc2ncnc3cc(OC)c(OC)cc23)cc1Cl | 88.1%
* NC(=O)c1ccc(N(C(N)=O)c2c(F)cccc2F)nc1-c1ccc(F)cc1F | 94%

Data request: State the recorded residual activity for this entry: CS(=O)c1ccc(-c2nc(-c3ccc(F)cc3)c(-c3ccncc3)[nH]2)cc1 (stereo not given)
Data returned: 98.1%

Data request: Also "O=C1Nc2ccc3ncsc3c2/C1=C/c1c[nH]cn1" ?
Data returned: 35.7%

====

SYSTEM NAME: BTK (human) (UniProt Q06187)
Sequence (Q06187 whole entry, looked up): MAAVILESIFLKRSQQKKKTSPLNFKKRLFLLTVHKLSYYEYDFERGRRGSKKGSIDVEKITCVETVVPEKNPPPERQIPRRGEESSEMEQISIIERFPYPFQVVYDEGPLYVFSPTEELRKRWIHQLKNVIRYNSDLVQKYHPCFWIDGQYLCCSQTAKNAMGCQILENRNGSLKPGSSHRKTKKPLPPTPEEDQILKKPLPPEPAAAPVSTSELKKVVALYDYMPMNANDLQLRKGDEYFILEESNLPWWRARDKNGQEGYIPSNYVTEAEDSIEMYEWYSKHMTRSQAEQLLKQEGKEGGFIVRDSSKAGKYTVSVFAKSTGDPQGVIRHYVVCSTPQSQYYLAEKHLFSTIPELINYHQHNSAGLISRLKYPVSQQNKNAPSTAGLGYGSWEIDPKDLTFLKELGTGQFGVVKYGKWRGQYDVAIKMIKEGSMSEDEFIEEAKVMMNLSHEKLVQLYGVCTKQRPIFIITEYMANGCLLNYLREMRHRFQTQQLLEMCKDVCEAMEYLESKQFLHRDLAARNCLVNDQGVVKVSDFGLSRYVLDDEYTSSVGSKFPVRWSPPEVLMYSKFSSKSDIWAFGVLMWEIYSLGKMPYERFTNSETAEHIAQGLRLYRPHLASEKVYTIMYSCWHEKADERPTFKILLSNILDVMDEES
PROTOCOL DESCRIPTION: radiometric filter-binding kinase assay, Kinase HotSpot
STATED CONDITIONS: compound 0.5 µM; ATP 10 µM
Rule: residual activity of 90% or more gives met; anything lower gives not met.

• Clc1ccc(Nc2nnc(Cc3ccncc3)c3ccccc23)cc1 = met
• CSc1nc(-c2ccc(F)cc2)c(-c2ccnc(NC(C)c3ccccc3)c2)[nH]1 (stereo not given) = not met
• Nc1n[nH]c2nnc(-c3c(-c4ccccc4)nn4ccccc34)cc12 = met

Data request: For this compound, is measured residual activity 90% or higher? CS(=O)c1ccc(-c2nc(-c3ccc(F)cc3)c(-c3ccncc3)[nH]2)cc1 (stereo not given)
Data returned: met

Data request: Also "O=c1cc(N2CCNCC2)oc2c(-c3ccccc3)cccc12" ?
Data returned: not met

====

Measured residual activity accompanies every entry in the list below.
SYSTEM NAME: INSRR (human)
PROTOCOL DESCRIPTION: radiometric filter-binding kinase assay, Kinase HotSpot
STATED CONDITIONS: compound 0.5 µM; ATP 10 µM
Express the result in % but write the number alone.

Solved cases (5 shown):
* O=c1cc(N2CCNCC2)oc2c(-c3ccccc3)cccc12 | 89.2
* Cc1cc2ncc(-c3ccccc3)nc2cc1C | 95.5
* O=C1Nc2cc(Br)ccc2/C1=C1/Nc2ccccc2/C1=N\O | 81
* NC(=O)c1ccc(N(C(N)=O)c2c(F)cccc2F)nc1-c1ccc(F)cc1F | 102
* Oc1ccc(-c2nc(-c3ccc(F)cc3)c(-c3ccncc3)[nH]2)cc1 | 98

Turning now to a further compound:
Data request: Quick check: residual activity on INSRR (human), item "Nc1nc(Nc2ccc(S(N)(=O)=O)cc2)nn1C(=S)Nc1c(F)cccc1F" ?
Data returned: 86.5

====

SYSTEM NAME: IKBKB (human)
PROTOCOL DESCRIPTION: radiometric filter-binding kinase assay, Kinase HotSpot
STATED CONDITIONS: compound 0.5 µM; ATP 10 µM
OBSERVED PROPERTY: residual activity (%)
Express the result in % but write the number alone.

Data request: State the recorded residual activity for this entry: "CC(C)n1cnc2c(Nc3cccc(Cl)c3)nc(NCCO)nc21"
Data returned: 102

====

SYSTEM NAME: MST4 (human)
PROTOCOL DESCRIPTION: radiometric filter-binding kinase assay, Kinase HotSpot
STATED CONDITIONS: compound 0.5 µM; ATP 10 µM
OBSERVED PROPERTY: residual activity (%)
Express the result in % but write the number alone.

Solved cases (6 shown):
- Oc1ccc(-c2nc(-c3ccc(F)cc3)c(-c3ccncc3)[nH]2)cc1: 101
- Cc1ccc(NC(=O)c2ccc(CN3CCN(C)CC3)cc2)cc1Nc1nc(-c2cccnc2)cs1: 97
- Nc1nc(Nc2ccc(S(N)(=O)=O)cc2)nn1C(=S)Nc1c(F)cccc1F: 4.54
- NC(=O)c1ccc(N(C(N)=O)c2c(F)cccc2F)nc1-c1ccc(F)cc1F: 117
- COc1ccc(-c2cnc3c(-c4ccsc4)cnn3c2)cc1: 95.7
- O=c1cc(-c2cccc3c2Sc2ccccc2S3)oc(N2CCOCC2)c1: 90.4

Data request: State the recorded residual activity for this entry: "Nc1n[nH]c2nnc(-c3c(-c4ccccc4)nn4ccccc34)cc12"
Data returned: 75.9

Data request: Also "O=C1Nc2cc(Br)ccc2/C1=C1/Nc2ccccc2/C1=N\O" ?
Data returned: 122

Data request: Also CS(=O)c1ccc(-c2nc(-c3ccc(F)cc3)c(-c3ccncc3)[nH]2)cc1 (stereo not given) ?
Data returned: 96.8

Data request: Also "CC(C)[C@H](CO)Nc1nc(Nc2cccc(Cl)c2)c2ncn(C(C)C)c2n1" ?
Data returned: 100

====

Measured residual activity accompanies every entry in the list below.
SYSTEM NAME: UniProt:P49760
Sequence (P49760 whole entry, looked up): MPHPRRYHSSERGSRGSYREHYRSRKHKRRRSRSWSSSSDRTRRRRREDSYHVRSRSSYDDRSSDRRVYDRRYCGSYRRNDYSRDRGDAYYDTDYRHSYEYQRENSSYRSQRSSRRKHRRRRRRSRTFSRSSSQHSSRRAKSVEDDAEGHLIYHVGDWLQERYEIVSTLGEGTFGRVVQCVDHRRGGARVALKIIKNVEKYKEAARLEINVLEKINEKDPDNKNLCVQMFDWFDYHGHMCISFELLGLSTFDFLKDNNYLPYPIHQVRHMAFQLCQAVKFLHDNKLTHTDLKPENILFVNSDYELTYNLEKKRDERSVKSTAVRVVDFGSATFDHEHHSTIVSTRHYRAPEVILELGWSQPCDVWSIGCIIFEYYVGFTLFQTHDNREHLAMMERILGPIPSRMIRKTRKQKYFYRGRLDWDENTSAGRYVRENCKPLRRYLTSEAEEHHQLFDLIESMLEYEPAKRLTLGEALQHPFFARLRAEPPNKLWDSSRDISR
PROTOCOL DESCRIPTION: radiometric filter-binding kinase assay, Kinase HotSpot
STATED CONDITIONS: compound 0.5 µM; ATP 10 µM
Express the result in % but write the number alone.

Solved cases (6 shown):
• O=C1Nc2ccccc2/C1=C\c1c(Cl)[nH]c2ccccc12 = 92.7
• CC(C)[C@H](CO)Nc1nc(Nc2cccc(Cl)c2)c2ncn(C(C)C)c2n1 = 21.9
• Clc1ccc(Nc2nnc(Cc3ccncc3)c3ccccc23)cc1 = 87.6
• Cc1ccc(NC(=O)c2ccc(CN3CCN(C)CC3)cc2)cc1Nc1nc(-c2cccnc2)cs1 = 86
• COc1cc2ncnc(Nc3ccc(F)c(Cl)c3)c2cc1OCCCN1CCOCC1 = 94.8
• CSc1nc(-c2ccc(F)cc2)c(-c2ccnc(NC(C)c3ccccc3)c2)[nH]1 (stereo not given) = 102

Data request: State the recorded residual activity for this entry: "O=c1cc(-c2cccc3c2Sc2ccccc2S3)oc(N2CCOCC2)c1"
Data returned: 84.7

====

Measured residual activity accompanies every entry in the list below.
SYSTEM NAME: STK38 (human)
PROTOCOL DESCRIPTION: radiometric filter-binding kinase assay, Kinase HotSpot
STATED CONDITIONS: compound 0.5 µM; ATP 10 µM
Express the result in % but write the number alone.

Solved cases (3 shown):
• CC(C)[C@H](CO)Nc1nc(Nc2cccc(Cl)c2)c2ncn(C(C)C)c2n1 = 90.5
• COc1ccc(-c2cnc3c(-c4ccsc4)cnn3c2)cc1 = 102
• CCCNC(=O)Nc1ccc(Oc2ncnc3cc(OC)c(OC)cc23)cc1Cl = 87.9

Data request: State the recorded residual activity for this entry: "Cc1cc2ncc(-c3ccccc3)nc2cc1C"
Data returned: 94.7

Data request: Also "Oc1ccc(-c2nc(-c3ccc(F)cc3)c(-c3ccncc3)[nH]2)cc1" ?
Data returned: 99.8

Data request: Also "NC(=O)c1ccc(N(C(N)=O)c2c(F)cccc2F)nc1-c1ccc(F)cc1F" ?
Data returned: 101

Data request: Also "COc1cc2ncnc(Nc3ccc(F)c(Cl)c3)c2cc1OCCCN1CCOCC1" ?
Data returned: 105

Data request: Also "O=C(Nc1ccc(Cl)cc1)c1ccccc1NCc1ccncc1" ?
Data returned: 97.5

Data request: Also CSc1nc(-c2ccc(F)cc2)c(-c2ccnc(NC(C)c3ccccc3)c2)[nH]1 (stereo not given) ?
Data returned: 104

Data request: Also "O=c1cc(N2CCNCC2)oc2c(-c3ccccc3)cccc12" ?
Data returned: 94.3
